# experimental target: T1, HA95 (human (endogenous in Bjab and HeLa), UniProt Q9ULX6 1-646)
# T1 sequence (looked up): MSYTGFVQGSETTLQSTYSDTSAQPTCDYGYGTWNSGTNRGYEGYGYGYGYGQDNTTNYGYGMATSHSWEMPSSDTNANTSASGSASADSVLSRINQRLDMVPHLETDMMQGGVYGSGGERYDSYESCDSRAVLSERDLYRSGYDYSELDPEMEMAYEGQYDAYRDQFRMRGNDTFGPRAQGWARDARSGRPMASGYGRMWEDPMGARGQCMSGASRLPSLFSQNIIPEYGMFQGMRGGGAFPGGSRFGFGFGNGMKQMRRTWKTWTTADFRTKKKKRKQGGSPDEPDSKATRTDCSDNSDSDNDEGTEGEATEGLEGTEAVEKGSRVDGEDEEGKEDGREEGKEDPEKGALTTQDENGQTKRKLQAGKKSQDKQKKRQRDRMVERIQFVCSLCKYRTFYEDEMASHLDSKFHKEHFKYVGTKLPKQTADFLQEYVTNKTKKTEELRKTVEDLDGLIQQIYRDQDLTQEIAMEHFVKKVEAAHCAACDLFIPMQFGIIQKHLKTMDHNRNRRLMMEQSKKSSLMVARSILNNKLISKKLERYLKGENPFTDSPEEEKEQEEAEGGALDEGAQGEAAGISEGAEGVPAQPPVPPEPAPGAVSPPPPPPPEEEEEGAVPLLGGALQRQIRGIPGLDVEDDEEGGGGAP
# assay procedure: far-Western, overlay or dot blot
measured attribute: binding result

GST–LAP2β(299–397) (domain or fragment, UniProt Q62733 299-397, looked up) GNFKHASSILPITEFSDITRRTPKKPLTRAEVGEKTEERRVERDILKEMFPYEASTPTGISASCRRPIKGAAGRPLELSDFRMEESFSSKYVPKYVPLA ... binds
GST–LAP2β(137–298) (domain or fragment, UniProt Q62733 137-298, looked up) TRKLYEKKLLKLREQGAESRSSTPLPTVSSSAENTRQNGSNDSDRYSDNDEDSKIELKLEKREPLKGRAKTPVTLKQRRIEHNQSYSEAGVTETEWTSGSSKGGPLQALTRESTRGSRRTPRRRVEPSQHFRVDGAVISESTPIAETIKASSNDSLVANRLT ... binds
GST–LAP2β(243–397) (domain or fragment, UniProt Q62733 243-397, looked up) QALTRESTRGSRRTPRRRVEPSQHFRVDGAVISESTPIAETIKASSNDSLVANRLTGNFKHASSILPITEFSDITRRTPKKPLTRAEVGEKTEERRVERDILKEMFPYEASTPTGISASCRRPIKGAAGRPLELSDFRMEESFSSKYVPKYVPLA ... binds
GST–LAP2β(299–373) (domain or fragment, UniProt Q62733 299-373, looked up) GNFKHASSILPITEFSDITRRTPKKPLTRAEVGEKTEERRVERDILKEMFPYEASTPTGISASCRRPIKGAAGRP ... binds
